The measured values listed here are drawn from ChEMBL document CHEMBL5338758.

experiment: Drug distribution in Sprague-Dawley rat spleen at 10 mg/kg, po measured after 8 hrs by LC-MS/MS analysis; type: ADME, organism-based; details: read-out: Drug uptake
ENDPOINT NAME: concentration at 8 h (ng/g)
One number for each entry, in ng/g.

Write down concentration at 8 h measured for item `COc1ccc(NS(=O)(=O)c2ccc(N3CCN(Cc4cccc([N+](=O)[O-])c4)CC3)c([N+](=O)[O-])c2)cn1` 137

###

assay: Drug distribution in Sprague-Dawley rat lung at 1 mg/kg, iv measured after 2 hrs by LC-MS/MS analysis; assay type: ADME, organism-based; settings: read-out: Drug uptake
ENDPOINT NAME: concentration at 2 h (ng/g)
Give bare numbers, in ng/g.

Note concentration at 2 h for the compound shown: `COc1ccc(NS(=O)(=O)c2ccc(N3CCN(Cc4cccc([N+](=O)[O-])c4)CC3)c([N+](=O)[O-])c2)cn1` 206
